tested on: HCT-116 human colon carcinoma cells; test: Cytotoxicity on HCT-116 tumour cells (sulphorodamine B); assay type: cell-based; conditions: read-out: IC50 ± SD, HCT-116 (concentration which inhibits the 50% of cell survival), 24 h treatment, then other 48 h in drug-free medium
pIC50: −log10 of the molar value.
quantity_measured: pIC50

# smiles_code, experimental_result
measured = [
    ("O=C(/C=C/c1ccc(C=NOCc2c(F)c(F)c(F)c(F)c2F)cc1)NO", 5.62),
]

----------
Measured IC50 values are reported for all entries that follow.
system: HCT-116 human colon carcinoma cells; experiment: Cytotoxicity on HCT-116 tumour cells (sulphorodamine B); assay type: cell-based; conditions: Homo sapiens, read-out: IC50 ± SD, HCT-116 (concentration which inhibits the 50% of cell survival), 24 h treatment, then other 48 h in drug-free medium
Structures can show the parent of a compound that is named as a salt.

# molecule, comparator, IC50 [µM]
records = [
    ("O=C(CCc1ccc(C=NOCc2ccc([N+](=O)[O-])cc2)cc1)NO", "=", 3.1),
    ("O=C(/C=C/c1ccc(C=NOCCN2CCOCC2)cc1)NO", "=", 1.8),
    ("C=CCON=Cc1ccc(/C=C/C(=O)NO)cc1", "=", 3.5),
    ("O=C(O)/C=C/c1ccc(C=NOCc2ccc([N+](=O)[O-])cc2)cc1", ">", 20),
    ("O=C(/C=C/c1ccc2[nH]ccc2c1)NO", "=", 2.7),
    ("Nc1ccccc1NC(=O)/C=C/c1ccc(C=NOCCN2CCOCC2)cc1 [ST3573, hydrochloride]", ">", 20),
    ("O=C(/C=C/c1ccc(C=NO)cc1)NO", "=", 3.5),
    ("O=C(/C=C/c1ccc(C=NNC(=O)c2ccc(Cl)cc2)cc1)NO", "=", 1.8),
    ("Cl.O=C(/C=C/c1cccc(C=NOCCN2CCOCC2)c1)NO [ST3576, hydrochloride]", "=", 4),
    ("O=C(/C=C/c1ccc(C=NOCc2ccccc2)cc1)NO", "=", 2.8),
]

----------
tested on: HCT-116 human colon carcinoma cells; assay: Cytotoxicity on HCT-116 tumour cells (sulphorodamine B); assay type: cell-based; conditions: Homo sapiens, read-out: IC50 ± SD, HCT-116 (concentration which inhibits the 50% of cell survival), 24 h treatment, then other 48 h in drug-free medium
quantity_measured: IC50

# compound, quantity_measured, experimental_result
measured = [
    ("O=C(/C=C/c1ccc(C=NOCc2ccc([N+](=O)[O-])cc2)cc1)NO [ST2987]", "IC50", "1.2 µM"),
    ("COC(=O)c1ccc(CON=Cc2ccc(/C=C/C(=O)NO)cc2)cc1 [ST3049]", "IC50", "1.7 µM"),
    ("Nc1ccccc1NC(=O)/C=C/c1ccc(C=NOCc2ccc([N+](=O)[O-])cc2)cc1 [ST3070]", "IC50", "33.4 µM"),
    ("O=C(/C=C/c1ccc(C=NOc2ccccc2)cc1)NO [ST2985]", "IC50", "3.7 µM"),
    ("O=C(O)/C=C/c1ccc(C=NOCc2ccccc2)cc1 [ST3076]", "IC50", "> 20 µM"),
]
